tested on: Acinetobacter baumannii ABA19-1; assay type: cell-based; conditions: ABA19-1
Bridge positions count the residues as written; N and C are the ends. Square brackets hold non-standard residues; d marks the D form. Peptide text beside a SMILES is read from it. * marks the point of attachment. Dab(CH2SO3H) = N[C@@H](CCNCS(=O)(=O)O)C(=O)O; Heptanoyl(6-Me) = CC(C)CCCCC(=O)*; dOrn = NCCC[C@@H](N)C(=O)O; Nonanoyl = CCCCCCCCC(=O)*; X1 = CC[C@H](C)CCCCC(=O)*; dDab = NCC[C@@H](N)C(=O)O; Heptanoyl = CCCCCCC(=O)*; Orn = NCCC[C@H](N)C(=O)O; Dab = NCC[C@H](N)C(=O)O; Dap = NC[C@H](N)C(=O)O
Threshold check on MIC: strictly below 0.06 µg/mL is true (1); on or above 0.06 µg/mL is false (0).

Compound	Label Value
CC[C@H](C)CCCCC(=O)N[C@@H](CCN)C(=O)N[C@H](C(=O)N[C@@H](CN)C(=O)N[C@H]1CCNC(=O)[C@H]([C@@H](C)O)NC(=O)[C@H](CCN)NC(=O)[C@H](CCN)NC(=O)[C@H](CC(C)C)NC(=O)[C@@H](Cc2ccccc2)NC(=O)[C@H](CCN)NC1=O)[C@@H](C)O [Compound 36] (X1-[Dab]T[Dap][Dab][Dab][dF]L[Dab][Dab]T; lactam 4-C)	true (1)
CC(C)CCCCC(=O)N[C@@H](CCN)C(=O)N[C@H](C(=O)N[C@H](CO)C(=O)N[C@H]1CCNC(=O)[C@H]([C@@H](C)O)NC(=O)[C@H](CCN)NC(=O)[C@H](CCNCS(=O)(=O)O)NC(=O)[C@H]([C@@H](C)O)NC(=O)[C@@H](Cc2ccccc2)NC(=O)[C@H](CCN)NC1=O)[C@@H](C)O [Compound 110] ({Heptanoyl(6-Me)}-[Dab]T[dS][Dab][Dab][dF]T[Dab(CH2SO3H)][Dab]T; lactam 4-C)	false (0)
CCCCCCC(=O)N[C@@H](CCN)C(=O)N[C@H](C(=O)N[C@H](CCCN)C(=O)N[C@H]1CCNC(=O)[C@H]([C@@H](C)O)NC(=O)[C@H](CCN)NC(=O)[C@H](CCN)NC(=O)[C@H](CC(C)C)NC(=O)[C@@H](Cc2ccccc2)NC(=O)[C@H](CCN)NC1=O)[C@@H](C)O [Compound 44] (Heptanoyl-[Dab]T[dOrn][Dab][Dab][dF]L[Dab][Dab]T; lactam 4-C)	false (0)
CCCCCCCCC(=O)N[C@@H](CCN)C(=O)N[C@H](C(=O)N[C@@H](CCCN)C(=O)N[C@H]1CCNC(=O)[C@H]([C@@H](C)O)NC(=O)[C@H](CCN)NC(=O)[C@H](CCN)NC(=O)[C@H](CC(C)C)NC(=O)[C@@H](Cc2ccccc2)NC(=O)[C@H](CCN)NC1=O)[C@@H](C)O [Compound 50] (Nonanoyl-[Dab]T[Orn][Dab][Dab][dF]L[Dab][Dab]T; lactam 4-C)	false (0)
CC[C@H](C)CCCCC(=O)N[C@@H](CCN)C(=O)N[C@H](C(=O)N[C@@H](CN)C(=O)N[C@H]1CCNC(=O)[C@H]([C@@H](C)O)NC(=O)[C@H](CCN)NC(=O)[C@H](CCN)NC(=O)[C@H]([C@@H](C)O)NC(=O)[C@@H](Cc2ccccc2)NC(=O)[C@H](CCN)NC1=O)[C@@H](C)O [Compound 6] (X1-[Dab]T[Dap][Dab][Dab][dF]T[Dab][Dab]T; lactam 4-C)	true (1)
CCCCCCCCC(=O)N[C@@H](CCN)C(=O)N[C@H](C(=O)N[C@@H](CCN)C(=O)N[C@H]1CCNC(=O)[C@H]([C@@H](C)O)NC(=O)[C@H](CCN)NC(=O)[C@H](CCN)NC(=O)[C@H]([C@@H](C)O)NC(=O)[C@@H](Cc2ccccc2)NC(=O)[C@H](CCN)NC1=O)[C@@H](C)O [Compound 20] (Nonanoyl-[Dab]T[Dab][Dab][Dab][dF]T[Dab][Dab]T; lactam 4-C)	false (0)
CC(C)CCCCC(=O)N[C@@H](CCN)C(=O)N[C@H](C(=O)N[C@@H](CN)C(=O)N[C@H]1CCNC(=O)[C@H]([C@@H](C)O)NC(=O)[C@H](CCNCS(=O)(=O)O)NC(=O)[C@H](CCN)NC(=O)[C@H]([C@@H](C)O)NC(=O)[C@@H](Cc2ccccc2)NC(=O)[C@H](CCN)NC1=O)[C@@H](C)O [Compound 120] ({Heptanoyl(6-Me)}-[Dab]T[Dap][Dab][Dab][dF]T[Dab][Dab(CH2SO3H)]T; lactam 4-C)	false (0)
CCCCCCC(=O)N[C@@H](CCN)C(=O)N[C@H](C(=O)N[C@H](CCN)C(=O)N[C@H]1CCNC(=O)[C@H]([C@@H](C)O)NC(=O)[C@H](CCN)NC(=O)[C@H](CCN)NC(=O)[C@H]([C@@H](C)O)NC(=O)[C@@H](Cc2ccccc2)NC(=O)[C@H](CCN)NC1=O)[C@@H](C)O [Compound 14] (Heptanoyl-[Dab]T[dDab][Dab][Dab][dF]T[Dab][Dab]T; lactam 4-C)	true (1)
